assay: Inhibitory activity against porcine heart Adenylate deaminase (AMPDA); set-up: species or system Sus scrofa
Readout label: log10 of Ki (log10 of the value in µM)
Note: values are log10 of Ki expressed in µM.

Here are 8 compounds together with their reported answers.
COC(=O)c1cc(C)ccc1CCCn1cnc2c1NC=NCC2O (stereo not drawn)	0.20
O=C(O)c1ccc2ccccc2c1CCCn1cnc2c1NC=NCC2O (stereo not drawn)	0.80
COC(=O)c1c(F)cccc1CCCn1cnc2c1NC=NCC2O (stereo not drawn)	0.18
CCCc1ccc(C(=O)OC)cc1CCn1cnc2c1NC=NCC2O (stereo not drawn)	1.15
O=C(O)c1ccc(CCCn2cnc3c2NC=NCC3O)o1 (stereo not drawn)	1.12
O=C(O)c1cccc(CCn2cnc3c2NC=NCC3O)c1 (stereo not drawn)	-0.29
O=C(O)c1cc(Br)cc(CCn2cnc3c2NC=NCC3O)c1 (stereo not drawn)	-1.10
CCOC(=O)c1cc(CC)cc(CCn2cnc3c2NC=NCC3O)c1 (stereo not drawn)	0.82

[Q] For COc1ccc(C(=O)O)cc1CCn1cnc2c1NC=NCC2O (stereo not drawn) , what is its reported log10 of Ki?
[A] -0.32

[Q] Follow-up item: O=C(O)c1cc(CCn2cnc3c2NC=NCC3O)cc(-c2ccc(F)cc2)c1 (stereo not drawn)
[A] -0.72

[Q] Follow-up item: O=C(O)c1cccc(CCCn2cnc3c2NC=NCC3O)c1 (stereo not drawn)
[A] 1.37

====

Entries annotated with measured pKi
biological target: Adenosine deaminase (Bos taurus, UniProt P56658); assay: Inhibitory activity against calf intestinal Adenosine deaminase (ADA)
Sequence (P56658 whole entry): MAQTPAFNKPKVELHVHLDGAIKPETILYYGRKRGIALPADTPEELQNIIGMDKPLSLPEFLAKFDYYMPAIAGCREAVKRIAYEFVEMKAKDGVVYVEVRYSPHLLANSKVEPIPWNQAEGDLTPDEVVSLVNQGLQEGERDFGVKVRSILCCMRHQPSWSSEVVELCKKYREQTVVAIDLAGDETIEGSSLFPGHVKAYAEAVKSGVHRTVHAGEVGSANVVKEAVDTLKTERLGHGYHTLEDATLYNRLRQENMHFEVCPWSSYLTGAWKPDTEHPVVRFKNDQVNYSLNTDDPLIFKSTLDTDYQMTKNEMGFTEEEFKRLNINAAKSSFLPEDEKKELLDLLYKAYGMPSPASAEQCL
The quantity pKi is defined as the negative base-10 logarithm of the molar concentration.

Here are 4 compounds together with their reported answers.
COC(=O)Cc1ccc(Cn2cnc3c2NC=NCC3O)cc1 (configuration not stated)	5.17
COC(=O)c1ccc(CCn2cnc3c2NC=NCC3O)cc1 (configuration not stated)	4.09
COC(=O)c1ccc2ccccc2c1CCCn1cnc2c1NC=NCC2O (configuration not stated)	6.74
CCCc1ccc(C(=O)OC)cc1CCn1cnc2c1NC=NCC2O (configuration not stated)	5.42

Now look at this entry.
[Q] For COC(=O)c1ccccc1CCCn1cnc2c1NC=NCC2O (configuration not stated) , what is its reported pKi?
[A] 6.80

====

assay: Inhibitory activity against porcine heart Adenylate deaminase (AMPDA); design: species or system Sus scrofa
Entries annotated with measured log10 Ki
Note: values are log10 of Ki expressed in µM.

COc1ccc(C(=O)O)cc1CCCn1cnc2c1NC=NCC2O (configuration not stated)	0.62

[Q] For O=C(O)c1cc(CCn2cnc3c2NC=NCC3O)cc(-c2ccccc2)c1 (configuration not stated) , what is its reported log10 Ki?
[A] -1.15

[Q] Follow-up item: CCOC(=O)c1ccc(C)c(CCn2cnc3c2NC=NCC3O)c1 (configuration not stated)
[A] 1.04

[Q] Follow-up item: O=C(O)c1c(F)cccc1CCCn1cnc2c1NC=NCC2O (configuration not stated)
[A] 0.95

[Q] Follow-up item: Cc1ccc(CCn2cnc3c2NC=NCC3O)cc1C(=O)O (configuration not stated)
[A] -0.24

[Q] Follow-up item: COC(=O)c1cccc(C(C)C)c1CCCn1cnc2c1NC=NCC2O (configuration not stated)
[A] 1.15

[Q] Follow-up item: COC(=O)c1ccccc1SCCn1cnc2c1NC=NCC2O (configuration not stated)
[A] 1.58

[Q] Follow-up item: COC(=O)c1ccc(OC)c(CCCn2cnc3c2NC=NCC3O)c1 (configuration not stated)
[A] 1.72

[Q] Follow-up item: COC(=O)c1ccc(OC)c(CCn2cnc3c2NC=NCC3O)c1 (configuration not stated)
[A] 1.32

====

Entries annotated with measured pKi
target: Adenosine deaminase (Bos taurus); experiment: Inhibitory activity against calf intestinal Adenosine deaminase (ADA)
pKi: −log10 of the molar value.

Here are 5 molecules together with their reported answers.
Cc1ccc(CCCn2cnc3c2NC=NCC3O)c(C(=O)O)c1 (configuration not stated)	< 5.12
O=C(O)c1ccccc1SCCn1cnc2c1NC=NCC2O (configuration not stated)	< 3.30
O=C(O)c1cc(CCn2cnc3c2NC=NCC3O)ccc1Cl (configuration not stated)	< 5.12
O=C(O)c1c(F)cccc1CCCn1cnc2c1NC=NCC2O (configuration not stated)	< 5.12
O=C(O)Cc1ccc(Cn2cnc3c2NC=NCC3O)cc1 (configuration not stated)	< 3.30

[Q] For CCc1cc(CCn2cnc3c2NC=NCC3O)cc(C(=O)O)c1 (configuration not stated) , what is its reported pKi?
[A] < 5.12

[Q] Follow-up item: O=C(O)c1cc(CCn2cnc3c2NC=NCC3O)ccc1F (configuration not stated)
[A] < 5.12

====

test: Inhibitory activity against porcine heart Adenylate deaminase (AMPDA); design: species or system Sus scrofa
pKi: −log10 of the molar value.
# label = T if pKi >= 6 else F

O=C(O)c1ccc(Cn2cnc3c2NC=NCC3O)cc1 (stereo not drawn)	F
CC(C)c1cccc(C(=O)O)c1SCCn1cnc2c1NC=NCC2O (stereo not drawn)	F
COC(=O)c1ccc(CCn2cnc3c2NC=NCC3O)cc1 (stereo not drawn)	F

[Q] Reported pKi at or above 6? O=C(O)c1ccc(CO)c(CCn2cnc3c2NC=NCC3O)c1 (stereo not drawn)
[A] T

[Q] Follow-up item: CCc1cc(CCn2cnc3c2NC=NCC3O)cc(C(=O)O)c1 (stereo not drawn)
[A] T

[Q] Follow-up item: COC(=O)c1ccc(C)cc1CCCn1cnc2c1NC=NCC2O (stereo not drawn)
[A] F

[Q] Follow-up item: COC(=O)c1ccccc1OCCn1cnc2c1NC=NCC2O (stereo not drawn)
[A] F

[Q] Follow-up item: COC(=O)c1ccc2ccccc2c1CCCn1cnc2c1NC=NCC2O (stereo not drawn)
[A] F
